System: OVCAR-4 ovarian
Assay: NCI tumour cell line growth inhibition, 48 h
measured.parameter: GI50

Below, each entry is followed by its recorded GI50 result.
CNC(C)[C@H]1CCC2C3CC=C4C(=O)[C@@H](NC(=O)C=C(C)C)CC[C@]4(C)C3CC[C@@]21C (some centres not stated)
2220 nM
NCCCOc1cc(Cl)ccc1NC(=O)c1cc2ccccc2cc1OCCCN
1510 nM
O=C1/C(=C/N2N=C(c3ccc4ccccc4c3)CC2c2ccccc2O)SC(=S)N1c1cccnc1 (configuration not stated)
4410 nM
COc1cc2c3c(n(CCCN(C)CCO)c(=O)c2cc1OC)-c1cc2c(cc1C3=O)OCO2
30900 nM
C=CCn1c(SCC(=O)Nc2ccc(C(=O)/C=C/c3cc(OC)c(OC)c(OC)c3)cc2)nnc1-c1ccc(OC)cc1
783 nM
COc1ccc(-c2cc(-c3ccc(Nc4ccnc5cc(Cl)ccc45)cc3)nc(N3CCOCC3)n2)cc1
1830 nM

Switching to the query record.
Q. Complete the entry with GI50 for COc1ccc(-c2ccc(NNC(=O)c3ccc(F)cc3)nn2)cc1OC
A. 55300 nM

---

Reported GI50 values follow for various molecules
Tested on: OVCAR-4 ovarian
Experiment: NCI tumour cell line growth inhibition, 48 h

Below, each entry is followed by its recorded GI50 result.
CC1(C)N=C(N)N=C(N)N1c1cccc(OCCOc2cccc([N+](=O)[O-])c2)c1
14.4 µM
Cc1ccc2[c](c1)[Sn]([c]1ccccc1)([c]1ccccc1)[c]1cc(C)ccc1N2C
41.6 µM
COc1cc(/C=C/C(=O)C(C(=O)/C=C/c2ccc(OC(=O)CCNC34CC5CC(CC(C5)C3)C4)c(OC)c2)C(=O)CCNC23CC4CC(CC(C4)C2)C3)ccc1OC(=O)CCNC12CC3CC(CC(C3)C1)C2 (stereo not given)
8.89 µM
O=C(N/N=C/c1ccc(O)cc1O)c1cccnc1
0.692 µM

Switching to the query record.
Q. Complete the entry with GI50 for Cn1cc(S(=O)(=O)N2CCC3=Cc4c(cnn4-c4ccc(F)cc4)C[C@]3(C(=O)c3cc(C(F)(F)F)ccn3)C2)cn1
A. > 100 µM

---

System: SF-539 CNS
Test: NCI tumour cell line growth inhibition, 48 h
Reported TGI values follow for various compounds

Below, each entry is followed by its recorded TGI result.
COc1ccc(-c2noc(N)c2-c2cc(OC)c3c(c2)OCO3)cc1
4.91 µM
O=C1C=CC(=CC=C2C=CN(CCCCCCCCCCC(=O)NCCCCCCCCCCCC(=O)O)C=C2)C=C1
> 100 µM
C=C1CCCCCCCCC/C=C/1SCCCSC
> 100 µM

Q. Complete the entry with TGI for O=C1C=C(Nc2ccc(S(=O)(=O)Nc3nccs3)cc2)c2ccccc2C1=O
A. 41.2 µM

Q. Complete the entry with TGI for CCOC(=O)C1=C(N)Oc2c(sc3c(C)cccc23)C1c1ccc(F)cc1 (stereo unspecified)
A. 3.48 µM

Q. Complete the entry with TGI for Cc1ccc(C)c(N2C(=O)C(=O)C(c3nc4ccccc4o3)/C(=N/N)C2=O)c1 (stereo unspecified)
A. > 100 µM

Q. Complete the entry with TGI for Cc1ccc(C)c(N2C(=O)C(=O)C(c3nc4ccccc4o3)/C(=N\NC(=O)c3ccccc3O)C2=O)c1 (stereo unspecified)
A. 65.2 µM

---

Tested on: 786-0 renal
Experiment: NCI tumour cell line growth inhibition, 48 h
Reported TGI values follow for various compounds

Below, each entry is followed by its recorded TGI result.
Nc1c(C(=O)Nc2ccccc2Cl)sc2nc3c(cc12)C(=O)CCC3
> 100 µM
CC(=O)c1ccc2c(c1)C(=O)c1sc(C(C)=O)cc1C2=O
50 µM
COc1cc(/C=N\O[Si](C)(C)C(C)(C)C)ccc1O[Si](C)(C)C(C)(C)C
> 100 µM

Q. # lookup: 786-0 renal TGI, key = O=c1[nH]nc(Cc2ccc(Cl)cc2)n1/N=C/c1cccs1
A. > 100 µM

Q. # lookup: 786-0 renal TGI, key = CCOC(=O)C(C)(c1c(C)[nH]c2ccccc12)c1c(C)[nH]c2ccccc12
A. 43 µM

---

Tested on: MDA-N
Assay: NCI tumour cell line growth inhibition, 48 h
measured.parameter: TGI

Below, each entry is followed by its recorded TGI result.
COc1ccc(C2c3cc4c(cc3OC(N3CCOCC3)C2C)OCO4)cc1 (stereo not given)
> 82 µM
Cc1ccnc2c1C(=O)C1=C(OC(C)(C)CC1O)C2=O (stereo not given)
2.9 µM
S=C1NCCN1C(=S)Nc1ccccc1
> 100 µM
COC(=O)C1=C(OC)[C@H]2C#C/C=C\C#C[C@@H]3Nc4c(cc(O)c5c4C(=O)c4ccccc4C5=O)[C@]24O[C@@]34[C@H]1C
0.0113 µM

Switching to the query record.
Q. Complete the entry with TGI for O=C1C=C(Nc2ccc(S(=O)(=O)Nc3nccs3)cc2)c2ccccc2C1=O
A. 38.5 µM

---

System: SR leukemia
Experiment: NCI tumour cell line growth inhibition, 48 h; in the data active means GI50 below about 0.43 µM; inactive means the rest
Allowed answers: active, inactive

NCCCOc1cc2ccccc2cc1C(=O)NCCCOc1cc2ccccc2cc1C(=O)Nc1ccc(Cl)cc1O
active

Q. Tell me the recorded outcome of this test for NCCCOc1cc(Cl)ccc1NC(=O)c1cc2ccccc2cc1OCCCN .
A. inactive

Q. Tell me the recorded outcome of this test for Cc1ccc2[c](c1)[Sn]([c]1ccccc1)([c]1ccccc1)[c]1cc(C)ccc1N2C .
A. active

Q. Tell me the recorded outcome of this test for Oc1ccc(N=Nc2nccs2)c(O)c1 .
A. inactive

Q. Tell me the recorded outcome of this test for COc1cc2c3c(n(CCCN(CCO)CCO)c(=O)c2cc1OC)-c1cc2c(cc1C3=O)OCO2 .
A. active

Q. Tell me the recorded outcome of this test for O=C(NC1CCCCC1)c1ccc(Nc2ncnc3c2cnn3-c2ccccc2)cc1 .
A. inactive

Q. Tell me the recorded outcome of this test for CC(=O)c1ccc2c(c1)C(=O)c1sc(C(C)=O)cc1C2=O .
A. active

Q. Tell me the recorded outcome of this test for COC(=O)[C@]12CC[C@@H](C)[C@H](C)[C@@H]1C1=CC[C@@H]3[C@@]4(C)C(C=O)=C[C@@](C)(COC(=O)c5ccco5)[C@@H]4[C@H](O)C[C@@]3(C)[C@]1(C)CC2 .
A. inactive

Q. Tell me the recorded outcome of this test for CN(C)CCNc1nc2ccccc2c2c(=O)c3cc(F)ccc3sc12 .
A. inactive

Q. Tell me the recorded outcome of this test for COc1ccc(-c2noc(N)c2-c2cc(OC)c3c(c2)OCO3)cc1 .
A. inactive

Q. Tell me the recorded outcome of this test for Cc1sc2c(c1C)C(c1ccc(Cl)cc1)=N[C@@H](CC(=O)Nc1ccc(OCCOCCOCCOCCNc3cccc4c3C(=O)N(C3CCC(=O)NC3=O)C4=O)cc1)c1nnc(C)n1-2 (some centres not stated) .
A. active

Q. Tell me the recorded outcome of this test for O=C(N/N=C/c1ccc(O)cc1O)c1cccnc1 .
A. inactive

---

Test system: CCRF-CEM leukemia
Test: NCI tumour cell line growth inhibition, 48 h
Reported TGI values follow for various molecules

CN1CCc2c(sc3[nH]c(=S)[nH]c(=S)c23)C1
> 100 µM
O=C1C=CC(=CC=C2C=CN(CCCCCCCCCCC(=O)NCCCCCCCCCCCC(=O)O)C=C2)C=C1
> 100 µM
CC1COS(=O)O1 (stereo not given)
> 100 µM

Q. Complete the entry with TGI for CCOC(=O)CCC(NC(=O)c1ccc(NCc2ccc3nc(-c4ccccc4)c(Cl)nc3c2)cc1)C(=O)OCC (stereo not given)
A. > 100 µM

Q. Complete the entry with TGI for Nc1c(S(=O)(=O)c2ccccc2)c2nc3ccccc3nc2n2c1nc1ccccc12
A. > 100 µM

Q. Complete the entry with TGI for CCOC(=O)C1=C(N)Oc2c(sc3c(C)cccc23)C1c1ccc(F)cc1 (stereo not given)
A. 21.6 µM

Q. Complete the entry with TGI for Cc1c2ccc3ccccc3c2c[n+]2ccccc12
A. 37.2 µM

Q. Complete the entry with TGI for O=C1c2ccc3c4ccccc4n(-c4ccccc4)c3c2C(=O)N1c1ccc(Cl)cc1
A. > 100 µM

Q. Complete the entry with TGI for COc1ccc(-c2cc(Nc3ccnc(N4CCOCC4)n3)on2)cc1
A. > 34.5 µM

Q. Complete the entry with TGI for CC(=O)OC(CCC1(C)OC1COc1ccc(CCNC(=O)C=C(C)C)cc1)C(C)(C)OC(C)=O (stereo not given)
A. > 92.7 µM

---

Tested on: NCI-H522 lung
Test: NCI tumour cell line growth inhibition, 48 h
Reported TGI values follow for various compounds
Kindly provide the numeric value in µM only, without the unit symbol.

COc1cc(C(=O)O[C@H](C(N)=O)[C@]2(C)CO2)c2cccc(C)c2c1
0.638
NC(N)=N/N=C(\N=Nc1ccccc1)c1ccc(Cl)cc1
13.8
N#Cc1cc2c(cc1Cl)Sc1nnc(Nc3ccccc3)n1S2(=O)=O
4.33
CS(=O)(=O)CS(=O)(=O)OCCCl
723
COc1cc(/C=C2\CCC/C(=C\c3ccc(OCC4CO4)c(OC)c3)C2=O)ccc1OCC1CO1 (configuration not stated)
6

Q. # lookup: NCI-H522 lung TGI, key = COC(=O)C1=C(OC)[C@H]2C#C/C=C\C#C[C@@H]3Nc4c(cc(O)c5c4C(=O)c4ccccc4C5=O)[C@]24O[C@@]34[C@H]1C
A. 0.0177

Q. # lookup: NCI-H522 lung TGI, key = CCC1CC(O)c2c(O)c3c(c(O)c2C1O)C(=O)c1cccc(O)c1C3=O (configuration not stated) (tested in a mixture with another compound)
A. 0.0658

Q. # lookup: NCI-H522 lung TGI, key = Cc1ccc(C)c(N2C(=O)C(=O)C(c3nc4ccccc4o3)/C(=N\NC(=O)c3ccccc3O)C2=O)c1 (configuration not stated)
A. 54

Q. # lookup: NCI-H522 lung TGI, key = Cc1ccnc2c1C(=O)C1=C(OC(C)(C)CC1O)C2=O (configuration not stated)
A. 11.1

Q. # lookup: NCI-H522 lung TGI, key = CCOC(=O)c1sc2nc(SC)nc(Nc3ccc4c(c3)OCCO4)c2c1N
A. 23.8

Q. # lookup: NCI-H522 lung TGI, key = Oc1c(Br)ccc2cccnc12
A. 6.21

Recorded values, source PubChem BioAssay (NCI).
